Examples of compounds with documented CC50 at 48 h follow.
- experiment.description: Cytotoxicity against MDCK cells after 48 hrs by MTT assay
- Format: cell-based, Canis lupus familiaris
- reported.conditions: dog, read-out: CTD50
Give your result in µM as a bare value.

The examples below pair each entry with its known result.
test.smiles: CCCCCCCC/N=C1\C[C@H]2CC[C@]1(C)C2(C)C
CC50 at 48 h, µM: 97.3
--
test.smiles: CCCC/N=C1\C[C@H]2CC[C@]1(C)C2(C)C
CC50 at 48 h, µM: 2420
--
test.smiles: CCCCC/N=C1\C[C@H]2CC[C@]1(C)C2(C)C
CC50 at 48 h, µM: 801
--
test.smiles: CCCCCCC/N=C1\C[C@H]2CC[C@]1(C)C2(C)C
CC50 at 48 h, µM: 234
--
test.smiles: CCCCCCCCCC/N=C1\C[C@H]2CC[C@]1(C)C2(C)C
CC50 at 48 h, µM: 50.9

Now for the compound whose CC50 at 48 h we want.
[in] Give the measured CC50 at 48 h of `CC1(C)[C@@H]2CC[C@@]1(C)/C(=N/CCO)C2` .
[out] 2500
